- assay.system: recombinant human PDE3B (Homo sapiens, UniProt Q13370)
- Sequence (Q13370 whole entry): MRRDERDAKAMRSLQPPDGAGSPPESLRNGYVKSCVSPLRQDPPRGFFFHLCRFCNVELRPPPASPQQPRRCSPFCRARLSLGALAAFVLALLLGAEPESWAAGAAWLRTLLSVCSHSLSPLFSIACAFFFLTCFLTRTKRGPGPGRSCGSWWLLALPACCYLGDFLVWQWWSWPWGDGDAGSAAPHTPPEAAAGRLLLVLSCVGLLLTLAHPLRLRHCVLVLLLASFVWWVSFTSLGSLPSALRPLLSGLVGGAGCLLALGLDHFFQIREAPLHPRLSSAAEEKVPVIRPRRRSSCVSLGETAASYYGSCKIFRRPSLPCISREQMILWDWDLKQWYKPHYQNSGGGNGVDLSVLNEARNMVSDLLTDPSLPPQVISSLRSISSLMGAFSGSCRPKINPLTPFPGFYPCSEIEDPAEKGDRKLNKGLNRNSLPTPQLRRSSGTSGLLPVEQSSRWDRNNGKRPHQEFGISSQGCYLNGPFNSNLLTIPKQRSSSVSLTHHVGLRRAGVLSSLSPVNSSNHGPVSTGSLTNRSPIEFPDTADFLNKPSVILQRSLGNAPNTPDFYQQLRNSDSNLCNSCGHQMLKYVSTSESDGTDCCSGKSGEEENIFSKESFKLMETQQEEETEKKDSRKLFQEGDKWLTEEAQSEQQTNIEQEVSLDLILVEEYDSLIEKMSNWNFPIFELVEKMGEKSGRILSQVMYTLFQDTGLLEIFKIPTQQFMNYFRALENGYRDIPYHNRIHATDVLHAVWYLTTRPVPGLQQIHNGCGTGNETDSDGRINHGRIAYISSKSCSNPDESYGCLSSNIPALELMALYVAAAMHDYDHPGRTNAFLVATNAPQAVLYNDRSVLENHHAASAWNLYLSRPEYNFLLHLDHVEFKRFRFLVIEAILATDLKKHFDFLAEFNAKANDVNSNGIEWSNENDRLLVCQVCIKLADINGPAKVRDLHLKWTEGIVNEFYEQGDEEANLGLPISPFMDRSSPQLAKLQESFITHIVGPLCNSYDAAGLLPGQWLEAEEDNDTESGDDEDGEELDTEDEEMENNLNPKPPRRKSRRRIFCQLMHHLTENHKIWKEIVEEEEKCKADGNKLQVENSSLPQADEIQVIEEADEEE
- run.description: PDE3B activity inhibition (PDE-Glo PDE assay kit)
pIC50: −log10 of the molar value.

- molecule: "O=C(O)c1ccccc1O [SAS, salicylate sodium]"
  assay.system: "recombinant human PDE3B (Homo sapiens, UniProt Q13370)"
  pIC50: 1.86

----------
- assay.system: human PDE4B (Homo sapiens)
- Sequence (Q07343 whole entry): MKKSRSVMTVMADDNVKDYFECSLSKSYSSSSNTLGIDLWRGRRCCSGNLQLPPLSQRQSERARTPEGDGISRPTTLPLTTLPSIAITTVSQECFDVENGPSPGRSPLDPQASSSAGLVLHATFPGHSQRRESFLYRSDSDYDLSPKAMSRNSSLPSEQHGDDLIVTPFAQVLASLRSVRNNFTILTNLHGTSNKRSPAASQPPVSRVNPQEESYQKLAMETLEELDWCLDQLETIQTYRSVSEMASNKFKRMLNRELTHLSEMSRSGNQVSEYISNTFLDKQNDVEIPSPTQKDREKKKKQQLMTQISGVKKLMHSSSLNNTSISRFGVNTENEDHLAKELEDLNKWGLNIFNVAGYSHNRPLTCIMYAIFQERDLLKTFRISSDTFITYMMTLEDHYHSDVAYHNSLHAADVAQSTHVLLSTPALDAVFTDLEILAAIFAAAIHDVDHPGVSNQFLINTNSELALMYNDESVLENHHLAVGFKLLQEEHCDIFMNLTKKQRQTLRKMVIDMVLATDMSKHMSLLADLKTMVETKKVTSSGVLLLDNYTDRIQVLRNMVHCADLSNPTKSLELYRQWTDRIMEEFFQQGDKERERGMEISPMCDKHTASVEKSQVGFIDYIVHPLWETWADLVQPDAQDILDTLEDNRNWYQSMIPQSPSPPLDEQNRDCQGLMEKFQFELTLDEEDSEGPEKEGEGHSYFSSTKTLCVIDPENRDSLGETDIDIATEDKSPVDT
pIC50: −log10 of the molar value.

- compound: "O=C(O)c1ccccc1O [SAS, salicylate sodium]"
  assay.system: "human PDE4B (Homo sapiens)"
  pIC50: 3.09
